- system.tested: Urotensin-2 receptor (Rattus norvegicus) (UniProt P49684)
- Sequence (P49684 whole entry): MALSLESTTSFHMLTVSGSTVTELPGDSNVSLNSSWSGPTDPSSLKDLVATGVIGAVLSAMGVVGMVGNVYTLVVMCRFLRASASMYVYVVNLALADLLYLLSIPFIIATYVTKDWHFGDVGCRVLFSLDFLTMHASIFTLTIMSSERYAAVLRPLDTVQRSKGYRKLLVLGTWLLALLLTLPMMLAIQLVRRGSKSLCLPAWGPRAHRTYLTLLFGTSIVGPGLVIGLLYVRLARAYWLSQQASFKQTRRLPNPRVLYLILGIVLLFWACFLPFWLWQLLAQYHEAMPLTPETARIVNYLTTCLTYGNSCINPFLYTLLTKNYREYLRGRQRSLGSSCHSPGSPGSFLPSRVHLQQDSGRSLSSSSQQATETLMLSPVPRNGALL
- assay: Agonist activity at urotensin 2 receptor in Sprague-Dawley rat thoracic aortic ring assessed as induction of contraction relative to urotensin-2
Bridge positions count the residues as written; N and C are the ends. Square brackets hold non-standard residues; d marks the D form. Peptide text beside a SMILES is read from it. NMeF = CN[C@@H](Cc1ccccc1)C(=O)O; NMeC = CN[C@@H](CS)C(=O)O
measurement.label: Emax (%)
Field: numeric (%). Do not append units.

Item under review: CC(C)[C@H](NC(=O)[C@@H]1CSSC[C@H](NC(=O)[C@@H](N)CC(=O)O)C(=O)N[C@@H](Cc2ccccc2)C(=O)N[C@@H](Cc2c[nH]c3ccccc23)C(=O)N[C@@H](CCCCN)C(=O)N[C@@H](Cc2ccc(O)cc2)C(=O)N1C)C(=O)O (H-DCFWKY[NMeC]V-OH; disulfide 2-7) . Reported Emax? 95

Item under review: CC(C)[C@H](NC(=O)[C@@H]1CSSC[C@H](NC(=O)[C@H](CC(=O)O)NC(=O)[C@@H]2CCCN2C(=O)[C@@H](NC(=O)[C@@H](N)CCC(=O)O)[C@@H](C)O)C(=O)N(C)[C@@H](Cc2ccccc2)C(=O)N[C@@H](Cc2c[nH]c3ccccc23)C(=O)N[C@@H](CCCCN)C(=O)N[C@@H](Cc2ccc(O)cc2)C(=O)N1)C(=O)O . Reported Emax? 96

Item under review: CC(C)[C@H](NC(=O)[C@@H]1CSSC[C@H](NC(=O)[C@H](C)N)C(=O)N[C@@H](Cc2ccccc2)C(=O)N(C)[C@@H](Cc2c[nH]c3ccccc23)C(=O)N[C@@H](CCCCN)C(=O)N[C@@H](Cc2ccc(O)cc2)C(=O)N1)C(=O)O . Reported Emax? 35

Item under review: CC(C)[C@H](NC(=O)[C@@H]1CSSC[C@H](NC(=O)[C@@H](N)CC(=O)O)C(=O)N(C)[C@@H](Cc2ccccc2)C(=O)N[C@@H](Cc2c[nH]c3ccccc23)C(=O)N[C@@H](CCCCN)C(=O)N[C@@H](Cc2ccc(O)cc2)C(=O)N1)C(=O)O (H-DC[NMeF]WKYCV-OH; disulfide 2-7) . Reported Emax? 98

Item under review: CC(C)[C@H](NC(=O)[C@@H]1CSSC[C@H](N(C)C(=O)[C@H](CC(=O)O)NC(=O)[C@@H]2CCCN2C(=O)[C@@H](NC(=O)[C@@H](N)CCC(=O)O)[C@@H](C)O)C(=O)N[C@@H](Cc2ccccc2)C(=O)N[C@@H](Cc2c[nH]c3ccccc23)C(=O)N[C@@H](CCCCN)C(=O)N[C@@H](Cc2ccc(O)cc2)C(=O)N1)C(=O)O . Reported Emax? 112

Item under review: CC(C)[C@H](NC(=O)[C@@H]1CSSC[C@H](NC(=O)[C@H](C)N)C(=O)N[C@@H](Cc2ccccc2)C(=O)N[C@@H](Cc2c[nH]c3ccccc23)C(=O)N[C@@H](CCCCN)C(=O)N[C@@H](Cc2ccc(O)cc2)C(=O)N1C)C(=O)O . Reported Emax? 44

Item under review: CC(C)[C@H](NC(=O)[C@@H]1CSSC[C@H](NC(=O)[C@H](CC(=O)O)NC(=O)[C@@H]2CCCN2C(=O)[C@@H](NC(=O)[C@@H](N)CCC(=O)O)[C@@H](C)O)C(=O)N[C@@H](Cc2ccccc2)C(=O)N(C)[C@@H](Cc2c[nH]c3ccccc23)C(=O)N[C@@H](CCCCN)C(=O)N[C@@H](Cc2ccc(O)cc2)C(=O)N1)C(=O)O . Reported Emax? 97
